Tested on: U2OS
Assay: Multiplex assay against U2OS
Type: toxicity, cell-based
Settings: human, 48 h, 1 µM, compound concentration 1 uM, replicate 2
Examples of compounds with documented Population Mitotic Cells (%) follow.
Lab note: write values as number then unit, every time.

compound	Population Mitotic Cells (%)
CC(C)c1noc(N2CCC(COc3ccc(-c4ccc(S(C)(=O)=O)cc4)nc3)CC2)n1	75%
O=c1cc(N2CCOCC2)oc2c(-c3cccc4c3sc3ccccc34)cccc12	81%
CCc1ccc(OCc2ccccc2C(=O)Nc2ccc3nc(C)cc(N)c3c2)cc1.Cl	0%

Ask: Looking for the measured Population Mitotic Cells (%) of Cl.O=C(O)c1cc(-c2ccc(C3CCNCC3)cc2)c2ccc(-c3ccc(C(F)(F)F)cc3)cc2c1 , can you help?
Reply: 66%

Ask: Looking for the measured Population Mitotic Cells (%) of COC(=O)C1=C(C)NC(C)=C(C(=O)OCCCN2CCC(c3ccccc3)(c3ccccc3)CC2)[C@H]1c1cccc([N+](=O)[O-])c1 , can you help?
Reply: 14%

Ask: Looking for the measured Population Mitotic Cells (%) of CC(C)(C)NC[C@H](O)COc1nsnc1N1CCOCC1 , can you help?
Reply: 57%

Ask: Looking for the measured Population Mitotic Cells (%) of Cc1ccccc1C(c1ccccc1C)N1C2CCC1CC(O)(c1ccccc1)C2 (stereo not given) , can you help?
Reply: 87%

Ask: Looking for the measured Population Mitotic Cells (%) of CCCSc1nc(N[C@@H]2C[C@H]2c2ccc(F)c(F)c2)c2nnn([C@@H]3C[C@H](OCCO)[C@@H](O)[C@H]3O)c2n1 , can you help?
Reply: 75%

---

Examples of compounds with documented Population Apoptotic (%) follow.
System: U2OS
Assay: Multiplex assay against U2OS
Format: toxicity, cell-based
Conditions: human, 48 h, 10 µM, compound concentration 10 uM, replicate 1
All answers are understood in %, so give the number only.

Consider the following illustrative entries.
compound	u	Population Apoptotic (%)
CC(C)(C)NC[C@H](O)COc1nsnc1N1CCOCC1	%	46
Cc1ccc(C)c(Oc2ccncc2C(=O)N2CCN(C3CC3)c3ccccc32)c1	%	61
CCc1ccc(OCc2ccccc2C(=O)Nc2ccc3nc(C)cc(N)c3c2)cc1.Cl	%	84
COc1cc(Nc2nccc(-c3cnn4nc(OC)ccc34)n2)cc(C(F)(F)F)c1	%	62

Ask: Looking for the measured Population Apoptotic (%) of Cc1cccc(CN2CCN(C(c3ccccc3)c3ccc(Cl)cc3)CC2)c1.Cl.Cl (centres undefined) , can you help?
Reply: 54

Ask: Looking for the measured Population Apoptotic (%) of Cl.O=C(O)c1cc(-c2ccc(C3CCNCC3)cc2)c2ccc(-c3ccc(C(F)(F)F)cc3)cc2c1 , can you help?
Reply: 45

Ask: Looking for the measured Population Apoptotic (%) of CN1CCN(Cc2ccc(Nc3ncc(Cl)c(Nc4ccccc4S(=O)(=O)N(C)C)n3)cc2)CC1 , can you help?
Reply: 92

Ask: Looking for the measured Population Apoptotic (%) of CCOC(=O)Nc1cc(-c2ccc(C)c(NS(C)(=O)=O)c2)nn2c(C)nnc12 , can you help?
Reply: 36

Ask: Looking for the measured Population Apoptotic (%) of COC(=O)C1=C(C)NC(C)=C(C(=O)OCCCN2CCC(c3ccccc3)(c3ccccc3)CC2)[C@H]1c1cccc([N+](=O)[O-])c1 , can you help?
Reply: 81
